Where do these numbers come from? They come from patent US20230235058A1.

Molecular target: chimeric BTLA of humanised-BTLA mice (human extracellular region, murine transmembrane and signaling … (human; mouse, UniProt Q7TSA3 184-306, limits assumed); note: test concentration or dose not given here
Sequence (Q7TSA3 other isoform, or with tags, fused parts or gaps mutant limits assumed): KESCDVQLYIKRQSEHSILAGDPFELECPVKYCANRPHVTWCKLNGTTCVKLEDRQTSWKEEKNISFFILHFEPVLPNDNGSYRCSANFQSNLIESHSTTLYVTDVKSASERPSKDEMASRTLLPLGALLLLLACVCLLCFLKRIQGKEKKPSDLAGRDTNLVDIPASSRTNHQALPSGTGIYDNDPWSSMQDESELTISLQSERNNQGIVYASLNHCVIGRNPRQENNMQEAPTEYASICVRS
Experiment: cell-based or functional assay
Observation type: MLR (CD4 T cell proliferation) repeat 2 (% inhibition)
Respond with the bare value in % inhibition.

// query MLR (CD4 T cell proliferation) repeat 2 value for entry 6.2 (antibody, IgG1, V domains shown, mIgG1; also called clone 6.2; parent clone 6.2) VH: EVKLVESGGGLVKPGGSLKLSCAASGFTLSSYGMSWVRQIPEKRLEWVASIRSDGNTYYPDSVKGRFIISRDNARNILYLQMSSLRSEDTAMYYCTRGGYYGSSPYYWGQGTTLTVSS VL: DIVMSQSPSSLPVSVGEKISMTCKSSQSLLYSSNQKNYLAWYQQKPGQSPKLLIYWASTRDSGVPDRFIGSGSGTDFTLTINSVKAEDLAVYYCQQYYNYLTFGAGTKLELK 35

What would you report for 3A9 (antibody, IgG1, V domains shown, mIgG1) VH: QVQLKQSGAELVRPGASVKLSCKASGYTFTDYYINWVKQRPGQGLEWIARIYPGSGNTYYNEKFKGKATLTAEKSSSTAYMQLSSLTSEDSAVYFCARGYGNSDYWGQGTTLTVSS VL: DILLTQSPAILSVSPGERVSFSCRASQSIGTRIHWYQQRTNGSPRLLIKYASESISGIPSRFSGSGSGTDFTLSINSVESEDIADYYCQQSNSWPYTFGGGTKLEIK ? 24

What would you report for 11.5.1 (antibody, V domains shown, mouse IgG1k hybridoma antibody) VH: EVQLQESGPSLVKPSQTLSLTCSVTGDSITSAYWNWIRKFPGNKLEYMGYISYSGSTYFNPSLKSRISITRNTSKNQYYLQLNSVTTEDTATYYCARSHYYGYYFDYWGHGTTLTVSS VL: DIVLTQSPASLAVSLGQRATISCRASETIDSYGDSLMHWYQQKAGQPPKLLIYRASNLESGIPARFSGSGSRTDFTLTINPVEADDVATYYCQQTDEDPYTFGGGTKLEIK ? 18

What would you report for 2.8.6 (antibody, V domains shown, mouse IgG1k hybridoma antibody; also called clone 2.8.6) VH: QVQLKESGPGLVAPSQSLSITCTVSGFSLTTYGVHWVRQSPGKGLEWLGVMWPGGRTSYNPAPMSRLSISKDNSKSQVFLKMNSLQTDDTAMYYCVRGDYEYDYYAMDYWGQGTSVTVSS VL: QIVLSQSPAILSASPGEKVTMTCRASSSVSYMHWYQQKPGSSPKPWIYATSNLASGVPARFSGSGSGTSYSLTISRMEAEDAATYYCHQWSSNPYTFGGGTKLEIK ? 36
